Test system: OVCAR-5 ovarian
METHOD: NCI-60 one-dose screen, 48 h (100 = growth as untreated, 0 = no growth, -100 = all killed)
MEASUREMENT SETUP: 10 µM unless noted
This is part of a sample that, as a whole, favours compounds with a hit. Of some 83,000 tested, about 20% had one in any assay.
MEASUREMENT TYPE: growth (%)
Provide only the numeric value, understood in %.

Known growth results, listed for orientation:
Cc1cc2nc3c4ccccc4n(CCNCCN(C)C)c3nc2cc1C; 39.5
OCC1(CCCc2ccccc2)CCCN(c2nccc3ccccc23)C1 (stereo unspecified); 62.4
COc1ccc(NC(=O)Nc2ccc(OCc3ccc(F)cc3)cc2)cc1; 72.9
COc1cc2oc(-c3cccc(C(=O)Nc4ccc(Cl)cc4)c3)cc(=O)c2c(OCC(=O)N[C@@H](Cc2ccccc2)C(=O)O)c1OC; 101
CN1CCN(Cc2ccc(C(=O)Nc3cccc(C#Cc4cccc5[nH]nc(N)c45)c3)cc2C(F)(F)F)CC1; -94.8

Form field: reported growth of `Cc1ccc(S(=O)(=O)c2nc(S(=O)(=O)c3ccc(C)cc3)c(N3CCC(O)CC3)s2)cc1`
104

// returns reported growth for input `CSc1ccc(C(=O)Nc2ccc3nn(/C(C#N)=C/c4ccccn4)nc3c2)cc1`
-86.2

Entry CCOC(=O)C1=C(N)N(c2ccccc2)C2=C(C(=O)CC(C)(C)C2)C1c1ccc([N+](=O)[O-])cc1 (stereo unspecified) has what growth?
101

I'd like to know its growth. The compound in question is CC1=C(C(=O)c2ccccc2)C(c2cccc(Cl)c2Cl)n2c(nc3ccccc32)N1 (stereo unspecified)
60.3

# lookup: growth of `COc1ccc(C(=O)/C=C/c2cccc(Cl)c2Cl)cc1S(N)(=O)=O`
-7.8

What value of growth has been recorded for this entry: `C=Cn1cc(C(=O)O)c(=O)c2cc(F)c(N3CCN(c4nccc(-c5nccs5)n4)CC3)cc21`
-25.6
